Subject of test: Thromboxane-A synthase (Homo sapiens, UniProt P24557)
Sequence (P24557 whole entry): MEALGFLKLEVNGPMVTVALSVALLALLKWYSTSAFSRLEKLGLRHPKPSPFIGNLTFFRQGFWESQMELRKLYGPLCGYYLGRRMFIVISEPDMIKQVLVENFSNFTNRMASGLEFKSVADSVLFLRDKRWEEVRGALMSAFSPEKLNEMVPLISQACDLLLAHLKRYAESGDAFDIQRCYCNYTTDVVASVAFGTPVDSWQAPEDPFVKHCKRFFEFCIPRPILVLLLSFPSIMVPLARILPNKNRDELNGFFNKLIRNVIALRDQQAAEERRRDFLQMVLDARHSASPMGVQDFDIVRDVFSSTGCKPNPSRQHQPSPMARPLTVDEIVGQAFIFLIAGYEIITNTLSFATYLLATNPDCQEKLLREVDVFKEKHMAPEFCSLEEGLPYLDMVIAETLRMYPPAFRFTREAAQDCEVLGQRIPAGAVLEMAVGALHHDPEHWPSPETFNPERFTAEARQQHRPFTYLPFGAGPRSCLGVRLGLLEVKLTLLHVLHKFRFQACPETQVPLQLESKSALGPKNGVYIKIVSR
Assay: biochemical
Format: tissue-based, Platelet
Experimental setup: platelet; read-out: IC50
Observable: IC50 (µM)

[
  {
    "Sequence text": "CISPLATIN",
    "Subject of test": "Thromboxane-A synthase (Homo sapiens, UniProt P24557)",
    "Observable": "IC50",
    "Recorded number": 9.35
  }
]

* * *

Assay: DRUGMATRIX: Potassium Channel [KATP] radioligand binding (ligand: [3H] Glyburide)
Format: cell membranes, Membrane
Experimental setup: hit-t15; Not Active = under 50% inhibition at 10 µM
Observable: IC50

[
  {
    "Compound": "N=C(N)NCCCCNC(=N)N.O=S(=O)(O)O [ARCAINE SULFATE]",
    "Result": "Not Active"
  },
  {
    "Compound": "CN[C@@H]1[C@@H](O)[C@@H](O[C@@H]2[C@@H](O)[C@H](O[C@H]3OC(CN)=CC[C@H]3N)[C@@H](N)C[C@H]2N)OC[C@]1(C)O [SISOMICIN]",
    "Result": "Not Active"
  },
  {
    "Compound": "CC(C)(C)NCC(O)c1ccc(O)c(CO)c1 (stereo not given) [ALBUTEROL]",
    "Result": "Not Active"
  },
  {
    "Compound": "CC(=O)OCC(=O)[C@@]1(OC(C)=O)[C@@H](C)C[C@H]2[C@@H]3C[C@H](F)C4=CC(=O)C=C[C@]4(C)[C@@]3(F)[C@@H](O)C[C@@]21C [DIFLORASONE DIACETATE]",
    "Result": "Not Active"
  },
  {
    "Compound": "CN1CCC[C@H]1c1cccnc1 [NICOTINE]",
    "Result": "Not Active"
  },
  {
    "Compound": "NC(CO)(CO)CO [TROMETHAMINE]",
    "Result": "Not Active"
  },
  {
    "Compound": "CC1(C)S[C@@H]2[C@H](NC(=O)[C@H](NC(=O)N3CCNC3=O)c3ccccc3)C(=O)N2[C@H]1C(=O)O [AZLOCILLIN]",
    "Result": "Not Active"
  },
  {
    "Compound": "CN[C@H](CC(C)C)C(=O)N[C@H]1C(=O)N[C@@H](CC(N)=O)C(=O)N[C@H]2C(=O)N[C@H]3C(=O)N[C@H](C(=O)N[C@H](C(=O)O)c4cc(O)cc(O)c4-c4cc3ccc4O)[C@H](O)c3ccc(c(Cl)c3)Oc3cc2cc(c3O[C@@H]2O[C@H](CO)[C@@H](O)[C@H](O)[C@H]2O[C@H]2C[C@](C)(N)[C@H](O)[C@H](C)O2)Oc2ccc(cc2Cl)[C@H]1O [VANCOMYCIN]",
    "Result": "Not Active"
  },
  {
    "Compound": "CCc1cccc2c3c([nH]c12)C(CC)(CC(=O)O)OCC3 (stereo not given) [ETODOLAC]",
    "Result": "Not Active"
  },
  {
    "Compound": "O=C1OC2(c3ccc(O)cc3Oc3cc(O)ccc32)c2ccccc21 [FLUORESCEIN]",
    "Result": "Not Active"
  },
  {
    "Compound": "CN1[C@@H]2CC[C@H]1C[C@@H](OC(=O)c1c[nH]c3ccccc13)C2 [TROPISETRON]",
    "Result": "Not Active"
  },
  {
    "Compound": "CC[C@@]1(O)C(=O)OCc2c1cc1n(c2=O)Cc2cc3ccccc3nc2-1 [CAMPTOTHECIN]",
    "Result": "Not Active"
  },
  {
    "Compound": "COc1ccc2cc(CC(=O)O)ccc2c1",
    "Result": "Not Active"
  },
  {
    "Compound": "NC(=O)c1ccccc1O [SALICYLAMIDE]",
    "Result": "Not Active"
  },
  {
    "Compound": "CCOC(=O)[C@H](CCc1ccccc1)N[C@@H](C)C(=O)N1[C@H](C(=O)O)C[C@@H]2CCC[C@@H]21",
    "Result": "Not Active"
  },
  {
    "Compound": "CC1(C)[C@H]2CC[C@]1(C)C(=O)C2 [(-)-CAMPHOR]",
    "Result": "Not Active"
  },
  {
    "Compound": "CC(=O)S[C@@H]1CC2=CC(=O)CC[C@]2(C)[C@H]2CC[C@@]3(C)[C@@H](CC[C@@]34CCC(=O)O4)[C@H]12 [SPIRONOLACTONE]",
    "Result": "Not Active"
  },
  {
    "Compound": "O=C(O)c1cn(C2CC2)c2cc(N3CCNCC3)c(F)cc2c1=O [CIPROFLOXACIN]",
    "Result": "Not Active"
  },
  {
    "Compound": "CN1C[C@H](C(=O)N[C@]2(C)O[C@@]3(O)[C@@H]4CCCN4C(=O)[C@H](Cc4ccccc4)N3C2=O)C=C2c3cccc4[nH]cc(c34)C[C@H]21 [ERGOTAMINE]",
    "Result": "Not Active"
  },
  {
    "Compound": "Oc1c(Cl)cc(Cl)cc1Sc1cc(Cl)cc(Cl)c1O [BITHIONOL]",
    "Result": "Not Active"
  },
  {
    "Compound": "O=C1CCc2cc(OCCCCc3nnnn3C3CCCCC3)ccc2N1 [CILOSTAZOL]",
    "Result": "Not Active"
  },
  {
    "Compound": "CC[N+](CC)(CC)CCOc1cccc(OCC[N+](CC)(CC)CC)c1OCC[N+](CC)(CC)CC.[I-].[I-].[I-] [GALLAMINE TRIETHIODIDE]",
    "Result": "Not Active"
  },
  {
    "Compound": "O=C1OCCN1/N=C/c1ccc([N+](=O)[O-])o1 [FURAZOLIDONE]",
    "Result": "Not Active"
  },
  {
    "Compound": "c1ccc2c(c1)cc1ccc3cccc4ccc2c1c34",
    "Result": "Not Active"
  },
  {
    "Compound": "CCCc1cc(=O)[nH]c(=S)[nH]1 [PROPYLTHIOURACIL]",
    "Result": "Not Active"
  },
  {
    "Compound": "C=CC[C@@H]1/C=C(\\C)C[C@H](C)C[C@H](OC)[C@H]2O[C@@](O)(C(=O)C(=O)N3CCCC[C@H]3C(=O)O[C@H](/C(C)=C/[C@@H]3CC[C@@H](O)[C@H](OC)C3)[C@H](C)[C@@H](O)CC1=O)[C@H](C)C[C@@H]2OC [TACROLIMUS ANHYDROUS]",
    "Result": "Not Active"
  },
  {
    "Compound": "CC(=O)[C@@]1(O)CC[C@H]2[C@@H]3C[C@H](C)C4=CC(=O)C=C[C@]4(C)[C@@]3(F)[C@@H](O)C[C@@]21C [FLUOROMETHOLONE]",
    "Result": "Not Active"
  },
  {
    "Compound": "Cc1ncc([N+](=O)[O-])n1CC(C)O (stereo not given) [SECNIDAZOLE]",
    "Result": "Not Active"
  },
  {
    "Compound": "CC1=Nc2ccc(Cl)cc2S(=O)(=O)N1 [DIAZOXIDE]",
    "Result": "Not Active"
  },
  {
    "Compound": "CCOC(=O)OC(C)OC1=C(C(=O)Nc2ccccn2)N(C)S(=O)(=O)c2ccccc21 (stereo not given) [AMPIROXICAM]",
    "Result": "Not Active"
  }
]

* * *

Subject of test: Cathepsin G (Homo sapiens)
Sequence (P08311 whole entry): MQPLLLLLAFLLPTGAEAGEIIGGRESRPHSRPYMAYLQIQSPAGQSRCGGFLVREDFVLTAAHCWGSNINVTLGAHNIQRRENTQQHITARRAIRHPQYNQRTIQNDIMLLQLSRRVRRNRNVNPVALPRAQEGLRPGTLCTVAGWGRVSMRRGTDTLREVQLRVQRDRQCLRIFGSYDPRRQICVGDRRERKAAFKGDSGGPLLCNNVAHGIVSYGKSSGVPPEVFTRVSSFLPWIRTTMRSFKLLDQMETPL
Type: tissue-based
Experimental setup: neutrophil

[
  {
    "Compound": "COS(C)(=O)=O",
    "IC50": "Not Active"
  },
  {
    "Compound": "CN[C@H](CC(C)C)C(=O)N[C@H]1C(=O)N[C@@H](CC(N)=O)C(=O)N[C@H]2C(=O)N[C@H]3C(=O)N[C@H](C(=O)N[C@H](C(=O)O)c4cc(O)cc(O)c4-c4cc3ccc4O)[C@H](O)c3ccc(c(Cl)c3)Oc3cc2cc(c3O[C@@H]2O[C@H](CO)[C@@H](O)[C@H](O)[C@H]2O[C@H]2C[C@](C)(N)[C@H](O)[C@H](C)O2)Oc2ccc(cc2Cl)[C@H]1O",
    "IC50": "Not Active"
  },
  {
    "Compound": "CCOC(=O)c1ccc(N)cc1",
    "IC50": "Not Active"
  },
  {
    "Compound": "Brc1ccccc1",
    "IC50": "Not Active"
  },
  {
    "Compound": "Clc1ccc(C(c2ccccc2Cl)C(Cl)Cl)cc1 (stereo not drawn)",
    "IC50": "Not Active"
  },
  {
    "Compound": "CCCSc1ccc2nc(NC(=O)OC)[nH]c2c1",
    "IC50": "Not Active"
  },
  {
    "Compound": "O=[N+]([O-])c1cc([As](=O)(O)O)ccc1O",
    "IC50": "Not Active"
  },
  {
    "Compound": "CCCC[C@@H](CC)COC(=O)c1ccccc1C(=O)OC[C@@H](CC)CCCC [BIS(2-ETHYLHEXYL)PHTHALATE]",
    "IC50": "Not Active"
  },
  {
    "Compound": "Oc1c(I)cc(I)c2cccnc12",
    "IC50": "Not Active"
  },
  {
    "Compound": "Cc1c(-c2ccccc2)oc2c(C(=O)OCCN3CCCCC3)cccc2c1=O [FLAVOXATE]",
    "IC50": "Not Active"
  },
  {
    "Compound": "CCCCCCCCCc1ccc(O)cc1",
    "IC50": "Not Active"
  },
  {
    "Compound": "C[C@]12Cc3c[nH]nc3C[C@@H]1CC[C@@H]1[C@@H]2CC[C@@]2(C)[C@H]1CC[C@]2(C)O",
    "IC50": "Not Active"
  },
  {
    "Compound": "CN1C(C(=O)Nc2ccccn2)=C(O)c2ccccc2S1(=O)=O",
    "IC50": "Not Active"
  },
  {
    "Compound": "CCc1ccc(C(=O)C(C)CN2CCCCC2)cc1 (stereo not drawn)",
    "IC50": "Not Active"
  },
  {
    "Compound": "Cc1ccccc1N1CCN(CCc2nnc3n2CCCC3)CC1",
    "IC50": "Not Active"
  },
  {
    "Compound": "CC(=O)[C@@]1(O)CC[C@H]2[C@@H]3C[C@H](C)C4=CC(=O)C=C[C@]4(C)[C@@]3(F)[C@@H](O)C[C@@]21C",
    "IC50": "Not Active"
  },
  {
    "Compound": "CCCCOC(=O)c1ccc(N)cc1",
    "IC50": "Not Active"
  },
  {
    "Compound": "Cc1ccc(C(=O)C(C)CN2CCCCC2)cc1 (stereo not drawn)",
    "IC50": "Not Active"
  }
]

Each recorded value in this set is attributed to ChEMBL document CHEMBL1909046.
